This collection of values is drawn from PubChem BioAssay (NCI).

Overview of recorded TGI for various molecules
Tested on: HS 578T breast
Experiment: NCI tumour cell line growth inhibition, 48 h

Reference set, count: 4
>>> df
                                   molecule  experimental_readout  measurement
0  Cc1ncc([N+](=O)[O-])n1CCN(C)CCCCn1ccnc1[N+](=O)[O-]                   TGI     > 100 µM
1  COc1ccc(-c2nc(-c3nc4ccc(F)cc4[nH]3)cc3c2[nH]c2ccccc23)cc1                   TGI     > 100 µM
2  O=c1cnn(C2OC(CO)C(O)C(F)C2O)c(=O)[nH]1 (stereo unspecified)                   TGI     > 100 µM
3  CCOC(=O)CC(C)C(C#N)(OP1(=O)OC(c2ccccc2)C(C)N1C)c1ccccc1 (stereo unspecified)                   TGI     > 100 µM

*Q* Value lookup for TGI; key = Cc1c2c(n3c(nc4ccccc43)c1C#N)N(c1ccc(Cl)cc1)CC2
*A* > 100 µM

*Q* Value lookup for TGI; key = COc1ccc(C(CC(=O)c2ccccc2)C(C(=O)c2ccccc2)C(c2ccc(OC)cc2)C2C(=O)NC(=O)NC2=O)cc1 (stereo unspecified)
*A* > 100 µM

*Q* Value lookup for TGI; key = CC1(C)CCC(S(=O)(=O)c2ccc3c(c2)/C(=N\O)c2cc(S(=O)(=O)N4CCC(O)(c5cccc(C(F)(F)F)c5)CC4)ccc2-3)CC1
*A* 0.0749 µM

*Q* Value lookup for TGI; key = CC(C)CN1CN(c2ccccc2)C2(CCN(CC(C)(c3ccc(F)cc3)C3OCCO3)CC2)C1=O (stereo unspecified)
*A* 16.8 µM

*Q* Value lookup for TGI; key = COc1ccc(C[C@@H]2CN(C(=O)c3ccccc3)[C@H](Cc3ccc(O)cc3)CN2C(=O)c2ccccc2)cc1Br
*A* > 100 µM

###

Tested on: SR leukemia
Experiment: NCI tumour cell line growth inhibition, 48 h
experimental.readout: TGI

>>> df
                                   compound  measurement
0  CN(C)c1c(Cl)c(=O)oc2c1ccc1nc(-c3ccccc3)sc12     > 100 µM

*Q* Value lookup for TGI; key = CN(C)CCNC(=O)c1ccc2ccc3cccnc3c2n1
*A* 30.7 µM

*Q* Value lookup for TGI; key = COc1ccc(C2C3=C(NC(=O)C2C#N)c2ccc4ccccc4c2OCC3)cc1 (stereo unspecified)
*A* > 100 µM

*Q* Value lookup for TGI; key = COc1ccc2c(O)c3[n+](cc2c1OC)CCc1cc2c(cc1-3)OCO2
*A* > 100 µM

*Q* Value lookup for TGI; key = O=C(CCSC(CC(=O)c1ccc(Cl)cc1)c1ccc(Cl)cc1)Nc1ccc(Cl)cc1 (stereo unspecified)
*A* 9.57 µM

*Q* Value lookup for TGI; key = CC(=O)N[C@@H](Cc1ccc(O)cn1)C(=O)NCc1cccc(F)c1
*A* > 100 µM

*Q* Value lookup for TGI; key = COc1ccc(-n2c(CCCC(=O)O)nc3c2C(=O)c2ccccc2C3=O)cc1
*A* > 100 µM

*Q* Value lookup for TGI; key = COc1ccc(-c2nc3ncccn3c2-c2ccc(S(C)=O)cc2)cc1 (stereo unspecified)
*A* > 100 µM

*Q* Value lookup for TGI; key = COc1ccccc1-c1cc2c3c(nc4ccccc42)C(=O)c2cccnc2-c3n1
*A* > 100 µM

*Q* Value lookup for TGI; key = O=C1c2ccn(CCCCN3CCOCC3)c2C(=O)c2c1c(O)c1ccccc1c2O
*A* 33.6 µM

*Q* Value lookup for TGI; key = Cn1ncc2c(Nc3ccc(Br)cc3)nc(Nc3ccc(Br)cc3)nc21
*A* 5.21 µM

*Q* Value lookup for TGI; key = O=c1c2cc([N+](=O)[O-])ccc2n2n1Cc1ccccc1CC2
*A* > 100 µM

*Q* Value lookup for TGI; key = CCCCCCC1CCC2CCCC(C)N12 (stereo unspecified)
*A* 58.4 µM

*Q* Value lookup for TGI; key = O=C(CCN1CCCCC1CCO)Nc1ccc2c(c1)C(=O)c1ccc(NC(=O)CCN3CCCCC3CCO)cc1C2=O (stereo unspecified)
*A* 29.3 µM

*Q* Value lookup for TGI; key = C=CCN1C(=O)CS/C1=N\NC(=O)c1c(C)nc2sccn12
*A* > 100 µM

*Q* Value lookup for TGI; key = O=c1cc2n(c(=O)[nH]1)C1OC(C(O)C1O)[C@@H]2CCO (stereo partly specified)
*A* > 100 µM
